log10 IC50 chromogenic reference
- system.tested: T1, mouse PAI-1 (mouse, UniProt P22777 24-401)
- T1 sequence: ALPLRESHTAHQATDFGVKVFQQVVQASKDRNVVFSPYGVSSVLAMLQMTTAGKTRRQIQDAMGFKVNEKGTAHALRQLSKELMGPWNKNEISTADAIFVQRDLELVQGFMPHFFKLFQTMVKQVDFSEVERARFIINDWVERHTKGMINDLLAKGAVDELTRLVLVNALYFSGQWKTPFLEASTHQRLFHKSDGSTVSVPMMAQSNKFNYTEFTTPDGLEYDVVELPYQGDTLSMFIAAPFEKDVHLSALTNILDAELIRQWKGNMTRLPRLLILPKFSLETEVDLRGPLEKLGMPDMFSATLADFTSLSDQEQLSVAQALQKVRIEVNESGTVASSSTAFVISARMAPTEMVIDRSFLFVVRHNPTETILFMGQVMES
- method: cell-based or functional assay
property: log10 IC50 chromogenic (log10 of the value in nM)

>>> meas_value("Antibody 01, IgG1, not germlined (antibody, V domains shown) VH: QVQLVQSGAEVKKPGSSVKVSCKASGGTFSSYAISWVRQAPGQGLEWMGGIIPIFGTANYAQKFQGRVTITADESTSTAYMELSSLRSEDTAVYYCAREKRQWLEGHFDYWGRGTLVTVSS VL: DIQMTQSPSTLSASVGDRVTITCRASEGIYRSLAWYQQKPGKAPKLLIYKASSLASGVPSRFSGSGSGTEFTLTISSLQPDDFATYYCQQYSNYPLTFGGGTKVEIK")
1.48
>>> meas_value("Antibody 15, scFv (scFv, V domains shown) VH: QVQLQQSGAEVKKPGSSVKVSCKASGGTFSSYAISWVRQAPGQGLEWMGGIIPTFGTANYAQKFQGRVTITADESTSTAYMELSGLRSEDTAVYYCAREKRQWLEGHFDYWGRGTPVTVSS VL: DIQMAQSPSFLSASIGDRVTITCRASEGIYHNLAWYQQKPGKAPKLLIYRASSLASGAPSRFSGSGSGTDFTLTISSLQPDDFATYYCQQYSNYPLTFGGGTKLEIR")
1.83
>>> meas_value("Antibody 16, scFv (scFv, V domains shown) VH: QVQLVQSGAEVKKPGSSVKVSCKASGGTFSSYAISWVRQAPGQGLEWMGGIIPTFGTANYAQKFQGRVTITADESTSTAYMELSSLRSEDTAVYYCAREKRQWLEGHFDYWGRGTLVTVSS VL: DIQMTQSPSTLSASVGDRVTITCRASESIYHSLAWYQQKPGKAPKLLIYKASSLASGVPSRFSGSRSGTEFTLTISSLQPDDFATYYCQQYSNYPLTFGGGTKVEIK")
0.63
>>> meas_value("Antibody 06, scFv (scFv, V domains shown) VH: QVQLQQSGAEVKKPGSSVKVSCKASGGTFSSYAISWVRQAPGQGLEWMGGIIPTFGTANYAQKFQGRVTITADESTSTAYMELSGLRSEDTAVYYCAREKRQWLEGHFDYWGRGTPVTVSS VL: DIQMTQSPSFLSASIGDRVTITCRASEGIYHELAWYQQKPGKAPKLLIYRASSLASGAPSRFSGSGSGTDFTLTISSLQPDDFATYYCQQYSNYPLTFGRGTKLEIK")
1.68
>>> meas_value("Antibody 05, scFv (scFv, V domains shown) VH: QVQLQQSGAEVKKPGSSVKVSCKASGGTFSSYAISWVRQAPGQGLEWMGGIIPTFSTANYAQKFRGRVTITADESTSTAYMELSGLRSEDTAVYYCAREKRQWLEGHFDYWGRGTPVTVSS VL: DIQMTQSPSFLSASIGDRVTITCRASEGIYHQLAWYQQKPGKAPKLLIYRASSLASGAPSRFSGSGSGTDFTLTISSLQPDDFATYYCQQYSNYPLTFGGGTKLEIK")
2.86
>>> meas_value("Antibody 22, scFv (scFv, V domains shown) VH: QVQLQQSGAEVKKPGSSVKVSCKASGGTFSGYAISWVRQAPGQGLEWMGGIIPTFGTANYSQKFQGRVTITADESTSTAYMELSGLRSEDTAVYYCAREKRQWLEGHFDYWGRGTPVTVSS VL: DIQMTQSLSFLSASIGDRVTITCRASEGIYHALAWYQQKPGKAPKLLIYRASSLASGAPSRFSGSGSGTDFTLTISSLQPDDFATYYCQQYSNYPLTFGGGTKLEIK")
2.62
>>> meas_value("Antibody 11, scFv (scFv, V domains shown) VH: QVQLQQSGAEVKKPGSSVKVSCKASGGTFSSYAISWMRQAPGQGLEWMGGIIPIFGTANYAQKFQGRVTITADESTSTAYMELSGLRSEDTAVYYCAREKRQWLEGHFDYWGRGTPVTVSS VL: DIQMIQSPSFLSASTGDRVTITCQASEGIYHELAWYQQKPGKAPKLLIYRASSLASGAPSRFSGSGSGTDFTLTISSLQPDDFATYYCQQYSNYPLTFGGGTKLEIK")
1.53
>>> meas_value("Antibody 04, scFv (scFv, V domains shown) VH: QVRLQQSGAEVKKPGSSVKVSCKASGGTFSSYAISWVRQAPGQGLEWMGGIIPTFGTANYAQKFRGRVTITANESTSTAYMELSGLRSEDTAVYYCAREKRQWLEGRFDYWGRGTLVTVSS VL: DIQMTQSPSFLSASIGDRITITCRASEGIYHSLAWYQQKPGKAPKLLIHRATSLASGTPSRFGGSGSGTDFALTISSLQPDDFATYYCQQYSNYPLTFGGGTKLEIK")
2.42
>>> meas_value("Antibody 26, scFv (scFv, V domains shown) VH: QVQLQQSGAEVKKPGTSVKVSCKASGGTFSSYAISWVRQAPGQGLEWMGGIIPIFGTANYAQKFQGRVTITADESTSTAYMELSSLRSEDTAVYYCAREKRQWLEGHFDYWGRGTPVTVSS VL: DIQMTQSPSFLSASIGDRVTITCRASEGIYHTLAWYQQKPGKAPKLLIYRASSLASGAPSRFSGSGSGTDFTLTISSLQPDDFATYYCQQYSNYPLTFGGGTKLEIK")
2.32
>>> meas_value("Antibody 01, scFv (scFv, V domains shown) VH: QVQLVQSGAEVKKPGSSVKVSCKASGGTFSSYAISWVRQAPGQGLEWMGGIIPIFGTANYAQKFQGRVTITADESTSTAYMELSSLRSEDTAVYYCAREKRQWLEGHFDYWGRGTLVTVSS VL: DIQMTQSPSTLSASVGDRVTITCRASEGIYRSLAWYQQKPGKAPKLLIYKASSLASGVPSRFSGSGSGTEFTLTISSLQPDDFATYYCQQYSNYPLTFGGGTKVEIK")
1.45
